Entries and their IC50 values follow.
Biological target: Recombinant human CSF1R kinase (Homo sapiens (Human), UniProt P07333)
Sequence (P07333 20-972): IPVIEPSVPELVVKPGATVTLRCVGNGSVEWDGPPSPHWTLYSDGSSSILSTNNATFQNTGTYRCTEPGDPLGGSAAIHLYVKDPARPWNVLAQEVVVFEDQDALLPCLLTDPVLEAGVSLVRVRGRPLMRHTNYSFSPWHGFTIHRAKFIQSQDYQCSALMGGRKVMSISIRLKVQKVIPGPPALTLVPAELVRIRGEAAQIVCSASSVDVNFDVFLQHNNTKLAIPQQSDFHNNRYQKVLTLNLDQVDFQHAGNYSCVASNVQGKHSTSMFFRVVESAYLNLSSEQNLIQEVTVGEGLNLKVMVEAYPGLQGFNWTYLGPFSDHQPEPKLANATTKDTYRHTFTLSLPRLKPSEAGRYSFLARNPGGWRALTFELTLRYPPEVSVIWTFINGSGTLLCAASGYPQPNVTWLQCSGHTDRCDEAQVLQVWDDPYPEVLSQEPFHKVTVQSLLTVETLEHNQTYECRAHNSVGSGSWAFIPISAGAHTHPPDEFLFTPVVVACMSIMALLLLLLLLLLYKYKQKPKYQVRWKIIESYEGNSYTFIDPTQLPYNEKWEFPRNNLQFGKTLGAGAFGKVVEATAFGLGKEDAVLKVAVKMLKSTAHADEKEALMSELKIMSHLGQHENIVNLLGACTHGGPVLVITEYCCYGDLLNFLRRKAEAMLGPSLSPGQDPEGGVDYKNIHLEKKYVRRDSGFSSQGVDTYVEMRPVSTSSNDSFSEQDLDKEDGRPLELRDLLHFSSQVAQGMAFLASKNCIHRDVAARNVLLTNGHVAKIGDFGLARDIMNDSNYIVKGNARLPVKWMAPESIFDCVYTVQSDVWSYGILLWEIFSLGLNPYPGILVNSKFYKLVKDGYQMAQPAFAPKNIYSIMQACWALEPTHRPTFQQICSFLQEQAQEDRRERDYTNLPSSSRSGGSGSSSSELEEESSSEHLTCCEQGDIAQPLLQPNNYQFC
Assay: Measurement of CSF1R kinase activity at molecular level (Z-LYTE)
Settings: Z-LYTE Tyr 1 peptide
Metric: IC50 (nM)

> print(dat)
                                    compound  result.unit  recorded.value
 1  Cn1cc(-c2cc(Oc3cnc4c(c3)OCC(c3ccc(C5CC5)cc3)O4)ccn2)cn1 (racemic) [Compound 51]           nM               8
 2  COc1ccc([C@@H]2COc3cc(Oc4ccnc(-c5cnn(C)c5)c4)cnc3O2)cn1           nM               3
 3  COc1cc(Oc2ccc3ncc(C)c(=O)n3c2)cnc1OCc1ccc(C2CC2(F)F)cc1 (stereo not shown)           nM              10
 4  COc1ccc([C@H]2COc3cc(Oc4ccc5ncc(C)c(=O)n5c4)cnc3O2)cc1           nM              10
 5  COc1ccc(COc2ncc(Oc3ccc4ncc(C)c(=O)n4c3)cc2C)cc1           nM             499
 6  COc1ccc([C@H]2COc3cc(Oc4ccnc(-c5cnn(C)c5)c4)cnc3O2)nc1           nM              10
 7  O=c1ccnc2ccc(Oc3cnc4c(c3)OCC(c3ccc(C5CC5)cc3)O4)cn12 (racemic) [Compound 56]           nM              12
 8  COc1ccc([C@H]2COc3cc(Oc4ccc5nccc(=O)n5c4)cnc3O2)cn1           nM               7
 9  COc1cc(Oc2ccc3ncc(C)c(=O)n3c2)cnc1OCc1ccc(-n2cccn2)cc1           nM               5
10  COc1ccc([C@@H]2COc3cc(Oc4ccc5nccc(=O)n5c4)cnc3O2)cc1           nM               5
11  Cn1cc(-c2cc(Oc3cnc4c(c3)OC[C@H](c3ccc(C5CC5)cn3)O4)ccn2)cn1           nM               6
12  COc1cc(Oc2ccc3ncc(N)c(=O)n3c2)cnc1OCc1ccc(C)cc1           nM               6
13  Cc1cnc2ccc(Oc3ccc(OCc4ccc(F)cc4)nc3)cn2c1=O           nM              81
14  Cc1cnc2ccc(Oc3cnc(OCc4ccc(Cl)cc4)nc3)cn2c1=O           nM              23
15  COc1ccccc1CCOc1ncc(Oc2ccc3ncc(C)c(=O)n3c2)cc1OC           nM              24
16  COc1cc(Oc2ccc3ncc(C)c(=O)n3c2)cnc1OCc1cccc(Cl)c1           nM               6
17  COc1cc(Oc2ccc3ncccc3c2)cnc1OCc1ccc(C2CC2)cc1           nM              33
18  Cc1cnc2ccc(Oc3cnc(OCc4ccc(C5CC5)cc4)nc3)cn2c1=O           nM              13
19  OCCn1cc(-c2cc(Oc3cnc4c(c3)OCC(c3ccc(C5CC5)cc3)O4)ccn2)cn1 (stereo not shown)           nM              19
20  COc1ccc([C@H]2COc3cc(Oc4ccnc(-c5cnn(C)c5)c4)cnc3O2)cn1           nM               8
21  COc1ccc([C@@H]2COc3cc(Oc4ccc5ncc(C)c(=O)n5c4)cnc3O2)cn1           nM               8
22  Cn1cc(-c2cc(Oc3cnc4c(c3)OC[C@@H](c3ccc(C5CC5)cn3)O4)ccn2)cn1           nM               5

Cited source: patent US20240092774A1
